molecular target: HLA-B*08:02; assay: IEDB peptide-MHC binding, purified MHC/direct/fluorescence; filed as Kd, often an IC50 or EC50 that approximates it; bounds were set here for any values at or beyond the usual limits of such assays; conditions: source organism: Mycobacterium tuberculosis F11
pKd: −log10 of the molar value.

{"RESIDUE_STRING": "MPRLSRNAA", "pKd": "≤ 4.70"}

---

molecular target: HLA-B*58:01; assay: IEDB peptide-MHC binding, purified MHC/competitive/fluorescence; filed as Kd, often an IC50 or EC50 that approximates it; bounds were set here for any values at or beyond the usual limits of such assays; details: source organism: Escherichia coli O157:H7 str. EDL933
QUANTITY: Kd (nM)

{"RESIDUE_STRING": "RMMGVKYLM", "QUANTITY": "Kd", "ENDPOINT_RESULT": 16.8}
